- systemUnderTest: ERα (Homo sapiens)
- Construct: host or cells: MCF7
- Sequence (P03372 1-595): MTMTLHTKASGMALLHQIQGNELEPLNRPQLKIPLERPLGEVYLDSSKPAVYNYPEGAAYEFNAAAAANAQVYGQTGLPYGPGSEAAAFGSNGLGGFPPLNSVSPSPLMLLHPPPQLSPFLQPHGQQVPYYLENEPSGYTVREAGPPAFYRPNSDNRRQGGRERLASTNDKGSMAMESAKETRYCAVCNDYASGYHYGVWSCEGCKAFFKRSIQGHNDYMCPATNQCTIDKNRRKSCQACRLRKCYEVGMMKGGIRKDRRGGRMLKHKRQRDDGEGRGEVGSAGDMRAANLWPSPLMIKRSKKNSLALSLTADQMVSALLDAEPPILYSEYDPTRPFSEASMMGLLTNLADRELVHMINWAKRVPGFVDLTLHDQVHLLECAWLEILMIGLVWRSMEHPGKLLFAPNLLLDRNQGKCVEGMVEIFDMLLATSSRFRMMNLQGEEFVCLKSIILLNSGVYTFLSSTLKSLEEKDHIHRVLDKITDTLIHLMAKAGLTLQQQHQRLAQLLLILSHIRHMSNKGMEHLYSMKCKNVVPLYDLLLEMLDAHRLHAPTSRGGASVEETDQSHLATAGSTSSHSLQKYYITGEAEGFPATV
- protocol: Estrogen receptor degradation activity: breast cancer cell ERα in cell western assay (MCF7 cells)
- Assay type: cell-based
- assaySetup: 4 hours post compound addition, concentration which degrades 50% of the estrogen receptor, read-out: Degradation IC50
Listing: DC50 of selected compounds
Express your answer in nM, writing the number without its unit.

// known answers, use as guide
O=C(O)c1ccc2c(c1)CCCC(c1ccc(F)c(F)c1)=C2c1ccc(CC2CN(CCCF)C2)cc1 : 0.3
O=C(O)c1ccc2c(c1)CCCC(c1ccc(F)cc1C(F)(F)F)=C2c1ccc(CC2CN(CCC(F)(F)F)C2)cc1 : 0.8
Cc1ccc(C2=C(c3ccc(CC4CN(CCCF)C4)cc3)c3ccc(C(=O)O)cc3CCC2)c(C(F)(F)F)c1.Cl [Example 213, hydrochloride] : 0.2

So what's the measured DC50 for this one? `O=C(O)c1cc2c(cc1Cl)C(c1ccc(CC3CN(CCCF)C3)cc1)=C(c1ccc(Cl)cc1Cl)CCC2`
2.2

Consider the compound shown here: `O=C([O-])c1ccc2c(c1)CCCC(c1cc(F)cc(C(F)F)c1)=C2c1ccc(CC2CN(CCCF)C2)cc1.[Na+]` What is its recorded DC50?
0.7

Given the entry COc1c(C(=O)O)ccc2c1CCCC(c1ccc(F)cc1C(F)(F)F)=C2c1ccc(CC2CN(CCCF)C2)cc1.Cl [Example 283, hydrochloride] , report its measured DC50.
93.3

Query: DC50; subject: `O=C(O)c1ccc2c(c1)CCCC(c1ccc(F)cc1C(F)(F)F)=C2c1ccc(CC2(F)CN(CCCF)C2)cc1`
3.7
